- run.description: NCI Yeast Anticancer Drug Screen. Data for the cln2 rad14 strain (AID 165);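 note: 0% = growth equal to vehicle treated cultures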
- applied.conditions: S. cerevisiae cln2 rad14 strain, at 50.0 µM, stronger effect = higher value
The panel holds about 79,000 compounds, 15% with a hit somewhere; the sample as a whole holds those more often.
Each entry falls into one class according to its growth inhibition; the ranges are c1 = under 50%, c2 = from 50% up to 90%, c3 = 90% and over

query: Each molecule maps to one class by growth inhibition. Which class for Cc1ccc(C(=O)N2CCN(C(=O)c3ccc(C)cc3)c3ccccc32)cc1 ?
result: c1

query: Bin? COc1ccc(C2c3cc4c(cc3OC(C)(O)C2C)OCO4)cc1 (stereo not given)
result: c3

query: Each molecule maps to one class by growth inhibition. Which class for CN(C)CCCNc1c(C#N)[n+]([O-])c2cc(Cl)ccc2[n+]1[O-] ?
result: c1

query: Record O=C1OC(c2ccccc2)(c2ccc(-c3ccccc3O)cc2)c2ccccc21 (stereo not given) — which class?
result: c3

query: Please let me know in which category the item CSC(=S)N/N=C\C(O)C(O)C(O)C(O)CO (stereo not given) belongs.
result: c2

query: Place this molecule in its band: O=c1ccnc(Nc2ccc[nH]c2=S)[nH]1
result: c1

query: Record CCCCCCCCCCCCCCCCn1cc(C(O)CN(C)C)c2ccccc21 (stereo not given) — which class?
result: c3

query: Lab note: sort CC(=O)OC1=CC2=CCC3C(CCC4(C)C(C(C)=O)CCC34)C2(C)CC1 (stereo not given) into the matching growth inhibition band.
result: c1

query: // bin(item) where item = CSC(=S)n1nc(-c2cccs2)c(N=Nc2ccccc2)c1C(F)(F)F
result: c2
